Data origin: patent US20220135701A1

Target: T1, human MerTK (human, UniProt Q12866 26-499)
T1 construct: also called HuMER
T1 sequence: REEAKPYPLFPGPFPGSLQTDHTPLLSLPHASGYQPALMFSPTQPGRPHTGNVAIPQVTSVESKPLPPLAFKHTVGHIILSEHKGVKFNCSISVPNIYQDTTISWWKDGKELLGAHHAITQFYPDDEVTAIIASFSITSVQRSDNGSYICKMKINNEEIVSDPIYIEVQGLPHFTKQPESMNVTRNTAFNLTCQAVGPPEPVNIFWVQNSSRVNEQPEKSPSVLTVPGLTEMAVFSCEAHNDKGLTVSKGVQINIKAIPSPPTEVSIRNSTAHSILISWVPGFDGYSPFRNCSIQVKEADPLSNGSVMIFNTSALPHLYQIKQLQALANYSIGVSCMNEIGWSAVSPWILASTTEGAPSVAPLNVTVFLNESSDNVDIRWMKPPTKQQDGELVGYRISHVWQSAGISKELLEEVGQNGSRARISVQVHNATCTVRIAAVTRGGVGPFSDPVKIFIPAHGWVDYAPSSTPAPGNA
Assay: SPR BIAcore T200, Ab captured, 37C
PROPERTY NAME: Kd
Write down the value, and be sure its unit follows.

Input line: Kd lookup needed for h9E3.FN.V1 HC K71R (antibody, human IgG1, name in Kabat numbering, V domains shown, Framework variant of h9E3.FN.v1 (human IgG1)) VH: EQQLVESGGGLIQPGGSLRLSCAVSGFSLSSNAMSWVRQAPGKGLEWIGIISSSGSTYSASWAKGRFTISRDSSKNTMYLQMNSLRAEDTAVYFCARVGFFVGYGAYDYGIIHRLDLWGQGTLVTVSS VL: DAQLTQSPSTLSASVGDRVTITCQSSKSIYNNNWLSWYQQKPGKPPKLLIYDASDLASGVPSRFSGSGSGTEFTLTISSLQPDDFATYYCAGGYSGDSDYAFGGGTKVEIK , thanks.
Output line: 41.3 nM

Input line: Requested read-out: Kd. Entry: h13B4.V1 HC V78L (antibody, human IgG1, name in Kabat numbering, V domains shown, Framework variant of h13B4.v1 (human IgG1)) VH: EQQLVESGEGLVQPGGSLRLSCAVSGFSLSSYAMGWVRQAPGKGLEWIGIINSYGNTYYANWAKGRFTISRDSSKNTLYLQMGSLRAEDMAVYFCARDPGVSSNLWGPGTLVTVSS VL: DVQMTQSPSTLSASVGDRVTITCQASQNIYSGLAWYQQKPGKPPKLLIYGASKLASGVPSRFSGSGSGTEFTLTISSLQPDDFATYYCQATYYSSNSVAFGGGTKVEIK
Output line: 9.2 nM
